Ref: patent US20240218057A1

Assay System: T1, SARS-COV-2 RBD (SARS-COV-2, UniProt P0DTC2 319-539)
T1 construct: also called WT RBD
Experimental Protocol: ELISA, RBD coated

[
  {
    "Binder": "C1028 (antibody, V domains shown, IgG; V domains only) VH: QVQLVESGGGVVQPGRSLRLSCADSGFTFSSSGMHWVRQAPGKGLEWVGVISYDGGNKYYADSVKGRFTISRDNSKNTLYLQMNSLRAEDTAVYYCAKDTPGGDDIMTGWGLYGMDVWGQGTTVTVSS VL: DIQMTQSPSSLSASVEDRVTITCRASQSISSYLNWYQQKPGKAPKLLIYAAISLQSGVPSRFSGSGSGTEFTLTISSLQPEDFATYYCQQSYTTPWAFGQGTKVEIK",
    "EC50 (ng/mL)": 3.58
  },
  {
    "Binder": "C840 (antibody, V domains shown, IgG; V domains only) VH: QVQLVESGGGVVQPGRSLRLSCEASGFTFTAYAMHWLRQAPGKGLEWVAVILNDGSNKLYADSVKGRFTVSRDNSKNMLYLQVNSLRVDDTAVYYCARDGSVDTLMVTWFDYWGQGTLVTVSS VL: DIQMTQSPSSLSASVGDRVTITCRASQSVNNYLNWYQQKPGQAPKLLIYAASSLQSGVPLRFSGSGSGTDFALTITSLHTEDFATYYCQQSYNTPPWTFGPGTKVEIK",
    "EC50 (ng/mL)": 1.36
  },
  {
    "Binder": "C958 (antibody, V domains shown, IgG; V domains only) VH: EVQLVQSGAEVKKPGDSLKISCKGSGYSFISHWIAWVRQKPGKGLEWMGIIHPGDSDTRYSPSIQGQVTISADRFITTAYLQWSSLQASDTAMYYCARRGSSWEIDHWGQGTLVTVSS VL: QSVLTQPPSASGTPGQRVTISCSGSSSNIGSYTVNWYHQVPGTAPKVLIYGNTQRPSGVPDRFSGSKSGTSASLAISGLQSEDEGDYYCAAWDDSLDGWMFGGGTTLTVL",
    "EC50 (ng/mL)": 4.02
  }
]
